Assay: chemical genetic growth profiling, strain panel (AID 1159580);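 further: tested at 20 µM; growth read once vehicle control cultures reached saturation at 30 °C; 1 = growth at the plate median or of vehicle wells; lower values mean less growth of the strain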
Conditions: S. cerevisiae deletion strains, growth OD, locus YDR001C, strain nth1, active compounds read low
In all, about 5,500 compounds went through this assay and about 2,000 (36%) were called active. Not shown: some 18% with an inconclusive outcome. The list shows a part of the results.
Would you mind telling me the reported normalized growth of each entry?
Give bare numbers.

Worked cases, normalized growth given:
compound	normalized growth
COc1cc2c(cc1O)CCNC2C (centres undefined)	0.999
Cc1ccc(N(CC2=NCCN2)c2cccc(O)c2)cc1	1.01
CC(=O)NS(=O)(=O)c1ccc(NC(=O)c2ccccc2C(=O)O)cc1	1.01
CCOC([O-])=Nc1c[n+](N2CCOCC2)no1	0.993
OC(c1cc(C(F)(F)F)nc2c(C(F)(F)F)cccc12)C1CCCCN1 (centres undefined)	1.01
Cc1onc(-c2ccccc2Cl)c1C(=O)N[C@@H]1C(=O)N2[C@@H]1SC(C)(C)[C@@H]2C(=O)O	1.04
O=C(O)c1cc(=O)c2cccc(O)c2[nH]1	1.01
CC1=NN(c2ccccc2)C(=O)C1	0.994

Each compound below has a recorded value; state its normalized growth.
1. CC1(C)S[C@@H]2[C@H](NC(=O)[C@H](C(=O)O)c3cccs3)C(=O)N2[C@H]1C(=O)O
2. O=C1c2ccccc2C(=O)C1c1ccccc1
3. CC(=O)OC[C@H]1O[C@@H](Oc2cc(OC(C)=O)c3c(=O)cc(-c4ccc(OC(C)=O)cc4)oc3c2)[C@H](OC(C)=O)[C@@H](OC(C)=O)[C@@H]1OC(C)=O
4. O=C(O)[C@H](O)[C@@](O)(Cc1ccc(O)cc1)C(=O)O
5. O=C(OC[C@H]1O[C@H](OC(=O)c2cc(O)c(O)c(OC(=O)c3cc(O)c(O)c(O)c3)c2)[C@H](OC(=O)c2cc(O)c(O)c(OC(=O)c3cc(O)c(O)c(O)c3)c2)[C@@H](OC(=O)c2cc(O)c(O)c(OC(=O)c3cc(O)c(O)c(O)c3)c2)[C@@H]1OC(=O)c1cc(O)c(O)c(OC(=O)c2cc(O)c(O)c(O)c2)c1)c1cc(O)c(O)c(OC(=O)c2cc(O)c(O)c(O)c2)c1
6. CN(C)C(=N)N=C(N)N
7. Cc1cc(C(C)(C)C)c(O)c(C)c1CC1=NCCN1

A.
1
0.981
1
1.02
0.998
1
0.993

----------
Would you mind telling me the reported normalized growth of each entry?
Assay: chemical genetic growth profiling, strain panel (AID 1159580);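 further: tested at 20 µM; growth read once vehicle control cultures reached saturation at 30 °C; 1 = growth at the plate median or of vehicle wells; lower values mean less growth of the strain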
Settings: S. cerevisiae deletion strains, growth OD, locus YCL029C, strain bik1, active compounds read low
Screen size: about 5,500 compounds; about 2,000 (36%) were called active. About 18% were inconclusive and are not listed. The list shows a part of the results.

Worked cases, normalized growth given:
compound	recorded-result
COc1ccc(C(=O)O)c(O)c1OC	0.992 (inactive)
CC(=O)CC1CCCCN1 (stereo unspecified)	0.99 (inactive)
Cc1ccc(N(CC2=NCCN2)c2cccc(O)c2)cc1	1.01 (inactive)
CC1=CC2C(C(C)C)CCC(C)(O)C2CC1 (stereo unspecified)	0.953 (inactive)
COc1ccc(C2C(=O)c3ccccc3C2=O)cc1	0.983 (inactive)
CC(=O)Oc1cccc2c1C(=O)c1c(OC(C)=O)cc(C(=O)O)cc1C2=O	0.585 (active)
CN1CCN(CCC=C2c3ccccc3Sc3ccc(S(=O)(=O)N(C)C)cc32)CC1	0.978 (inactive)
COc1cc(O)cc(OC)c1OC	1.01 (inactive)
CN(C)CCc1c[nH]c2ccc(CS(=O)(=O)N3CCCC3)cc12	0.981 (inactive)
CCCCc1nc(Cl)c(CO)n1Cc1ccc(-c2ccccc2-c2nn[nH]n2)cc1	1.01 (inactive)

Each compound below has a recorded value; state its normalized growth.
1. C1CCC(C(CC2CCCCN2)C2CCCCC2)CC1 (stereo unspecified)
2. CCCc1nc2c(C)cc(-c3nc4ccccc4n3C)cc2n1Cc1ccc(-c2ccccc2C(=O)O)cc1
3. CCC1(CC)C(=O)C=CNC1=O
4. Cc1onc(-c2ccccc2Cl)c1C(=O)N[C@@H]1C(=O)N2[C@@H]1SC(C)(C)[C@@H]2C(=O)O
5. CC(=O)[C@@]1(O)CCC2C3CCC4=CC(=O)CC[C@]4(C)C3CC[C@@]21C (stereo partly specified)

A.
1. 0.873 (active)
2. 1.01 (inactive)
3. 1.01 (inactive)
4. 1.05 (inactive)
5. 1.01 (inactive)

----------
Assay: chemical genetic growth profiling, strain panel (AID 1159580);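 further: tested at 20 µM; growth read once vehicle control cultures reached saturation at 30 °C; 1 = growth at the plate median or of vehicle wells; lower values mean less growth of the strain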
Details: S. cerevisiae deletion strains, growth OD, locus YOL012C, strain htz1
Screen size: about 5,500 compounds; about 2,000 (36%) were called active. Inconclusive results (about 18%) are left out. The list shows a part of the results. *1 amine or outer side, *2 acyl side, *3 side chain or, on linkers, in order; H or OH if unused. Where a SMILES comes first, the peptide text is derived from it. Bridges are numbered along the chain shown (N, C = ends). [ ]: non-standard residue; d: D form. The star is where a group is joined. ξ: configuration not given here. ΔAla(E,3-NHCONH2) = NC(=O)N/C=C(/N)C(=O)O; X2 = NC1=NCCC(C(N[*:1])C(=O)[*:2])N1; ξβ3hOrn = NCCCC(N)CC(=O)*; Dap = NC[CH](N)C(=O)O
Note to self: normalized growth under 1 means Y, ties and anything higher get N.

Here are 5 compounds together with their reported answers.
compound	class-name
CC(N)C(O)c1ccc(O)c(O)c1 (configuration not stated)	Y
CN[C@@H]1[C@@H](O[C@H]2O[C@H](CO)[C@@H](N)[C@H](O)[C@H]2O)O[C@H]2C[C@@H](N)[C@H](O[C@H]3[C@H](O)[C@@H](O)[C@H](N)C[C@@H]3N)O[C@@H]2[C@@H]1O	Y
COc1cc(-c2coc3cc(O[C@@H]4O[C@H](CO)[C@@H](O)[C@H](O)[C@H]4O)c(OC)c(O)c3c2=O)cc(O)c1OC	Y
COc1cc(-c2oc3cc(O)ccc3c(=O)c2O)cc(OC)c1OC	N
O=c1oc2c(O)c(O)cc3c(=O)oc4c(O)c(O)cc1c4c23	Y

Q. Is 1 strictly greater than the compound's reported normalized growth? compound: NCC1OC(OC2C(CO)OC(OC3C(O)C(N)CC(N)C3OC3OC(CO)C(O)CC3N)C2O)C(N)C(O)C1OC1OC(CO)C(O)C(O)C1O (configuration not stated)
A. N

Q. Please do the same for NCCCC(N)CC(=O)NCC1NC(=O)C(CO)NC(=O)C(N)CNC(=O)C(C2CCN=C(N)N2)NC(=O)/C(=C\NC(N)=O)NC1=O (stereo not drawn) (H-[Dap]S[Dap](ξβ3hOrn)[ΔAla(E,3-NHCONH2)][X2]; lactam 1-C; configuration not given here) as well.
A. N

Q. Please do the same for c1ccc([C@H]2CN3CCSC3=N2)cc1 as well.
A. N

Q. Please do the same for COc1cc2c(cc1OC)-c1c(oc3c4c(ccc3c1=O)OC(C(C)C)C4)CO2 (configuration not stated) as well.
A. Y

----------
Would you mind telling me the reported normalized growth of each entry?
Assay: chemical genetic growth profiling, strain panel (AID 1159580);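 further: tested at 20 µM; growth read once vehicle control cultures reached saturation at 30 °C; 1 = growth at the plate median or of vehicle wells; lower values mean less growth of the strain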
Settings: S. cerevisiae deletion strains, growth OD, locus YNL248C, strain rpa49, active compounds read low
Hit rate of the full screen: of about 5,500 compounds, about 2,000 (36%) were called active. Not shown: some 18% with an inconclusive outcome. The list shows a part of the results.
One number for each entry.

Worked cases, normalized growth given:
molecule	reported-metric	recorded-result
CCCc1nc2c(C)cc(-c3nc4ccccc4n3C)cc2n1Cc1ccc(-c2ccccc2C(=O)O)cc1	normalized growth	1.02
CCCCc1nc(Cl)c(CO)n1Cc1ccc(-c2ccccc2-c2nn[nH]n2)cc1	normalized growth	0.996
CC1(C)S[C@@H]2[C@H](NC(=O)Cc3ccccc3)C(=O)N2[C@H]1C(=O)O	normalized growth	1.03
COC1(C)CCC2OC2(C)CCC2C1CC2(C)C (stereo unspecified)	normalized growth	1.02
O=c1oc2c(O)c(O)cc3c(=O)oc4c(O)c(O)cc1c4c23	normalized growth	0.912

Each molecule below has a recorded value; state its normalized growth.
1. NC(N)=NC(N)=Nc1ccccc1
2. OCCN1CCN(CCCN2c3ccccc3Sc3ccc(C(F)(F)F)cc32)CC1
3. CC1=NN(c2ccccc2)C(=O)C1
4. O=c1c(O)c(-c2ccc(O)c(O)c2)oc2cc(O)ccc12
5. OCc1c[nH]c2ccccc12
6. COc1ccc(C2C(=O)c3ccccc3C2=O)cc1
7. NCCc1c[nH]c2ccccc12
8. COc1cccc(OC)c1C(=O)N[C@@H]1C(=O)N2[C@@H]1SC(C)(C)[C@@H]2C(=O)O

A.
1: 0.998; 2: 0.901; 3: 0.973; 4: 0.995; 5: 0.997; 6: 1.05; 7: 0.986; 8: 1.01
